Reported Ki against Angiotensin-converting enzyme (Homo sapiens, UniProt P12821), gathered from multiple publications, appears below.
Field: label. Allowed values: satisfied (Ki < 30 µM) or not satisfied (Ki >= 30 µM).

Record O=c1c2cc(O)c(O)cc2oc2c(O)c(O)ccc12 : is its Ki strictly below 30 µM? satisfied

Is Ki strictly under 30 µM for the entry NCCCC[C@H](N[C@@H](CCc1ccccc1)C(=O)O)C(=O)N[C@@H](Cc1c[nH]c2ccccc12)C(=O)O ? satisfied

Find out if reported Ki for NCCCC[C@H](N[C@H](CCc1ccccc1)C(=O)O)C(=O)N[C@@H](Cc1c[nH]c2ccccc12)C(=O)O is less than 30 µM satisfied

Consider C[C@H](NP(=O)(O)CCc1ccccc1)C(=O)N1CCC[C@H]1C(=O)O . Does its Ki lie strictly below 30 µM? satisfied

Find out if reported Ki for CC(C)C[C@@H](C(=O)O)N1CCO[C@@H](c2ccccc2)[C@H](NC(=O)[C@@H](S)Cc2ccccc2)C1=O is less than 30 µM not satisfied

hey, is Ki for O=C(O)C(CCc1ccccc1)NC1Cc2ccccc2[C@H]2CCC[C@@H](C(=O)O)N2C1=O (some centres undefined) lower than 30 µM or not? satisfied

Lab note: Ki threshold 30 µM. Does this compound come in strictly under it? O=c1c2cc(O)c(O)cc2oc2cc(O)cc(O)c12 not satisfied

Please check: Ki for O=c1c2ccc(O)c(O)c2oc2c(O)c(O)ccc12 , strictly under 30 µM or not? not satisfied

Quick check: does O=C(O)[C@@H]1CCCN1 have Ki under 30 µM? not satisfied
